# assay details: Timed organ biodistribution of [^64Cu]Cu-DOTATATE by ex vivo gamma counting
# Format: in vivo, mice
# test context: mouse, stomach, intravenous, 1.85 MBq, total radioactivity; female Apoe^-/- mice 12 weeks on Western Diet, 1 min after injection, median (IQR), N=3-8; read-out: Tissue radioactivity, stomach
measurement kind: tissue uptake at 1 min
Please answer in the form of a number followed by its unit of measurement.

Quick note, tissue uptake at 1 min for C[C@@H](O)[C@H](NC(=O)[C@@H]1CSSC[C@H](NC(=O)[C@@H](Cc2ccccc2)NC(=O)CN2CCN(CC(=O)O)CCN(CC(=O)O)CCN(CC(=O)O)CC2)C(=O)N[C@@H](Cc2ccc(O)cc2)C(=O)N[C@H](Cc2c[nH]c3ccccc23)C(=O)N[C@@H](CCCCN)C(=O)N[C@@H]([C@@H](C)O)C(=O)N1)C(=O)O [[^64Cu]Cu-DOTATATE, metal not drawn] landed at 2.1 %ID/g
